System name: constitutive androstane receptor (hCAR1) (Homo sapiens)
Sequence (Q14994 109-352 limits assumed): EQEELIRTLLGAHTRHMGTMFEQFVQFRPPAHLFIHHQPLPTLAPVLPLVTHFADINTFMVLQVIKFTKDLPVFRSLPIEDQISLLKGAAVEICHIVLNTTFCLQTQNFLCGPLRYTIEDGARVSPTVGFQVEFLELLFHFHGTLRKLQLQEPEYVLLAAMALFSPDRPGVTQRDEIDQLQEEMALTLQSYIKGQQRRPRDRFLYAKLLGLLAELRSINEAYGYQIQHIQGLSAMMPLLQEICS
pKd: −log10 of the molar value.
Quantity name: pKd

Query block: Given CCOC(=O)Nc1ccc2c(c1)N(C(=O)CN(CC)CC)c1ccccc1CC2 [CINPA1] , state its recorded pKd.
Result block: ~3.26

Values from paper PMC5960625
